experimental-target: alpha-L-fucosidase (Bos taurus)
procedure-summary: Inhibitory activity against alpha-Fucosidase in bovine kidney
The entries below come with measured pIC50 values attached.
Please keep in mind that pIC50 is minus log10 of the molar concentration; only the number is needed.

>  <compound>
C[C@@H]1CC(NCCc2ccccc2)[C@@H](O)[C@@H](O)[C@@H]1O (some centres not stated)

>  <experimental-target>
alpha-L-fucosidase (Bos taurus)

>  <pIC50>
5.12

$$$$

Kindly consider the entry below.
Incoming: I have this compound here, CCCCCCCCCCCCN[C@H]1CC(C)[C@@H](O)C(O)[C@@H]1O (some centres not stated) , and I need its recorded pIC50.
Outgoing: 5.92
